All figures here come from PubChem BioAssay (EPA / NIEHS).

Molecular target: Peroxisome proliferator-activated receptor gamma (Homo sapiens)
Test: OT_PPARg_PPARgSRC1_1440: Odyssey Thera (OT) 24-hour Protein-Complementation Assay for Peroxisome Proliferator-activated Receptor Gamma/ SRC-1 Co-activator (AID 2283388);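 also: nuclear to cytoplasmic ratio of reconstituted Venus YFP fluorescence in fixed imaged cells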
Activity calls are given as the source filed them. The calls were made as follows: active = hit-call score of the fitted dose curve at least 0.9, where 1 is the maximum; inconclusive = response in the unintended direction; inactive = score below 0.9.
Measured quantity: outcome

Example entries and their recorded answers appear below.
• CCOC(=O)CC(SP(=O)(OC)OC)C(=O)OCC (stereo not drawn) = inactive
• CN(C)NC(=O)CCC(=O)O = inactive
• CC(C)=CC1C(C(=O)OCN2C(=O)C3=C(CCCC3)C2=O)C1(C)C (stereo not drawn) = inactive
• CCOP(=O)(SC(C)CC)N1CCSC1=O (stereo not drawn) = inactive
• CCOP(=O)(NC(C)C)Oc1ccc(SC)c(C)c1 (stereo not drawn) = inactive

stdin: What outcome value was documented for this molecule, CCCCSP(=O)(SCCCC)SCCCC ?
stdout: inactive

stdin: // repeat for CCCCOC(=O)c1ccccc1C(=O)O and report
stdout: inactive

stdin: Here is the next molecule: CN1COCN(Cc2cnc(Cl)s2)C1=N[N+](=O)[O-]
stdout: inactive

###

Test: APR_HepG2_CellCycleArrest_24hr: Apredica 24-hour HepG2 Assay for Cell Cycle Arrest (AID 2282905);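 also: cell cycle arrest scored as ratio of 2N to 4N nuclear DNA content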
Conditions: imaging, actives raise or lower the signal
Activity calls are given as the source filed them. How the source made its calls: active means hit-call score of the fitted dose curve at least 0.9, where 1 is the maximum; inactive means score below 0.9.
Bench note: report the call from TRUE = active, FALSE = inactive

Study these solved cases before continuing.
• Nc1nc(N)nc(NC2CC2)n1 = FALSE
• CN(C)NC(=O)CCC(=O)O = FALSE
• CNC(=O)Oc1cccc2c1OC(C)(C)O2 = TRUE
• CCCCN(CC)c1c([N+](=O)[O-])cc(C(F)(F)F)cc1[N+](=O)[O-] = TRUE
• Cc1cc(C2CC2)nc(Nc2ccccc2)n1 = FALSE

stdin: Lab log entry: CSc1nnc(C(C)(C)C)c(=O)n1N — outcome as called in the assay?
stdout: FALSE

stdin: Now consider CC(COc1ccc(Oc2ccccc2)cc1)Oc1ccccn1 (centres undefined) and answer again.
stdout: TRUE

stdin: Record: S=C1NCCN1
stdout: FALSE

###

Test: APR_HepG2_CellLoss_24hr: Apredica 24-hour HepG2 Assay for Cell Loss (AID 2282908)
Settings: high-content imaging
Calls of active or inactive are those of the source. Rule for the calls: active = hit-call score of the fitted dose curve at least 0.9, where 1 is the maximum; inactive = score below 0.9.
Hello, when you answer, please use one of the following outcomes: true (1) = active, false (0) = inactive

• CCOC(=O)CC(SP(=O)(OC)OC)C(=O)OCC (configuration not stated) = false (0)
• CC(=NC#N)N(C)Cc1ccc(Cl)nc1 = false (0)
• CNC(=O)Oc1cccc2c1OC(C)(C)O2 = true (1)
• O=c1ccc(=O)[nH][nH]1 = false (0)
• CCOP(=S)(OCC)Oc1ccc2c(C)c(Cl)c(=O)oc2c1 = false (0)
• CC1(C(=O)Nc2ccc(O)c(Cl)c2Cl)CCCCC1 = false (0)

stdin: Which outcome was entered for the compound CSc1nnc(C(C)(C)C)c(=O)n1N in this test?
stdout: false (0)

stdin: Next compound up: C#CCC1=C(C)C(OC(=O)C2C(C=C(C)C)C2(C)C)CC1=O (configuration not stated)
stdout: true (1)

stdin: One more compound: COc1cccc(C(=O)NN(C(=O)c2cc(C)cc(C)c2)C(C)(C)C)c1C
stdout: false (0)

stdin: Here is the next compound: CC(C)[C@H](C(=O)O[C@H](C#N)c1cccc(Oc2ccccc2)c1)c1ccc(Cl)cc1
stdout: false (0)

stdin: Again, but for CSc1nc(NC(C)C)nc(NC(C)C)n1
stdout: false (0)

stdin: What about this compound? CC(C)N(C(=O)SCC(Cl)=C(Cl)Cl)C(C)C
stdout: true (1)

###

Biological target: Estrogen receptor beta (Homo sapiens) (UniProt Q92731)
Sequence (Q92731 whole entry, looked up, the tested form may be a part): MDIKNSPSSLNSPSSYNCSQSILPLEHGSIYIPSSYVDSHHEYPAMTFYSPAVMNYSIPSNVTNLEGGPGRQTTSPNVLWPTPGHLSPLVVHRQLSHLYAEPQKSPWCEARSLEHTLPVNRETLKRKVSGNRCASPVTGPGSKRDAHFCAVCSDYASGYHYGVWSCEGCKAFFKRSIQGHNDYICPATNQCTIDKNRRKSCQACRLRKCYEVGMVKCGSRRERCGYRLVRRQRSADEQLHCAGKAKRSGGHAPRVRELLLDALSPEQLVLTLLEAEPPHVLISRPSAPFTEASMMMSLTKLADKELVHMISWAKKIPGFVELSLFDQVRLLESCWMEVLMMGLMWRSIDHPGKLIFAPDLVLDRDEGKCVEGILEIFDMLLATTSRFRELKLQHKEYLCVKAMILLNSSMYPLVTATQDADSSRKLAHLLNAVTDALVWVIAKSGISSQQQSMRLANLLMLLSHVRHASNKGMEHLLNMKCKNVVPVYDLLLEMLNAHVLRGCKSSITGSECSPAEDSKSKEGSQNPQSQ
Test: OT_ER_ERbERb_1440: Odyssey Thera (OT) 24-hour HEK293T Protein-Complementation Assay for Estrogen Receptor-beta/-beta Homodimer (AID 2283380);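 also: fluorescence gain from ER beta LBD homodimer complementation read by laser scanning cytometry; scored as signal increase over DMSO baseline for both agonists and antagonists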
Procedure: OT_ER_ERbERb_1440 is a cell-based assay that uses HEK293T, a human kidney cell line, with measurements taken at 24 hours after chemical dosing in a 384-well plate.OT_ER_ERbERb_1440 is one of one assay component(s) measured or calculated from the OT_ER_ERbERb_1440 assay. […] This assay endpoint, OT_ER_ERbERb_1440, was analyzed in the positive analysis fitting direction relative to DMSO as the negative control and baseline of activity. […]
Calls of active or inactive are those of the source. Rule for the calls: active = hit-call score of the fitted dose curve at least 0.9, where 1 is the maximum; inconclusive = response in the unintended direction; inactive = score below 0.9.
Permitted responses: active, inactive

Previously resolved entries follow.
- CC1=NNC(=O)N(/N=C/c2cccnc2)C1: inactive
- CSC1=N[C@@](C)(c2ccccc2)C(=O)N1Nc1ccccc1: inactive
- CCCOCC(=Nc1ccc(Cl)cc1C(F)(F)F)n1ccnc1: inactive
- Cc1cc(C2CC2)nc(Nc2ccccc2)n1: active
- CNC(=O)ON=C(C)SC: inactive

stdin: Test call, this compound: C[Si](Cn1cncn1)(c1ccc(F)cc1)c1ccc(F)cc1
stdout: inactive

stdin: And then Cc1ccn2nc(S(=O)(=O)Nc3c(F)cccc3F)nc2n1 , what is it?
stdout: inactive

stdin: Cool, now CCOP(=S)(OCC)SCCSCC
stdout: inactive

stdin: Field entry: CCOC(=O)CC(SP(=O)(OC)OC)C(=O)OCC (stereo not drawn)
stdout: inactive

stdin: // query: Nc1c(Cl)cc([N+](=O)[O-])cc1Cl
stdout: inactive

stdin: Another compound to look at: CCOP(=S)(OCC)Oc1ccc2c(C)c(Cl)c(=O)oc2c1
stdout: inactive

stdin: # repeat for CCC(=NOC/C=C/Cl)C1=C(O)CC(C2CCOCC2)CC1=O (stereo not drawn)
stdout: inactive

stdin: What do we get for CCCCN(CC)c1c([N+](=O)[O-])cc(C(F)(F)F)cc1[N+](=O)[O-] ?
stdout: inactive

stdin: CCOP(=O)(OCC)Oc1cc(C)nc(C(C)C)n1 , same question.
stdout: inactive

stdin: Let us now turn to CCNc1nc(Cl)nc(NC(C)(C)C#N)n1
stdout: inactive

stdin: Lookup CCC(CC)Nc1c([N+](=O)[O-])cc(C)c(C)c1[N+](=O)[O-]
stdout: active

###

Read-out: xenobiotic metabolism (CYP1A2), CYP1A2 (gene 1544)
Assay: CLD_CYP1A2_6hr: CellzDirect (CLD) Gene Expression Assay for xenobiotic metabolism (CYP1A2) at 6 hours (AID 2283663)
Results filed as inconclusive are left out. Calls of active or inactive are those of the source. How the source made its calls: active means hit-call score of the fitted dose curve at least 0.9, where 1 is the maximum; inconclusive means response in the unintended direction; inactive means score below 0.9.
The categories you may choose from are 1.0 for active, 0.0 for inactive

The following compounds have reported results that may help.
* COP(=O)(OC)OC(Br)C(Cl)(Cl)Br (stereo not drawn) | 0.0
* CCOP(=S)(OCC)SCCSCC | 1.0
* CC(C)[C@H](C(=O)O[C@H](C#N)c1cccc(Oc2ccccc2)c1)c1ccc(Cl)cc1 | 0.0

stdin: Outcome logged for CCCSP(=O)(OCC)Oc1ccc(Br)cc1Cl (stereo not drawn) in this assay:
stdout: 0.0

stdin: // same read-out, input: CC(COc1ccc(Oc2ccccc2)cc1)Oc1ccccn1 (stereo not drawn)
stdout: 0.0

###

Experiment: CCTE_Shafer_MEA_acute_per_network_burst_electrodes_number_mean: CCTE's Neural Acute Assay for Mean Number of Electrodes in a Network Burst, Shafer Lab (AID 2284021);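 also: curves fitted for decreases only so hits reduce electrodes per burst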
Active and inactive are the calls of the source. Rule for the calls: active = hit-call score of the fitted dose curve at least 0.9, where 1 is the maximum; inactive = score below 0.9.
Allowed answers: active, inactive

Solved entries (count: 3):
• CSC1=N[C@@](C)(c2ccccc2)C(=O)N1Nc1ccccc1 = inactive
• CC(C)[C@H](C(=O)O[C@H](C#N)c1cccc(Oc2ccccc2)c1)c1ccc(Cl)cc1 = active
• CCOP(=S)(OCC)Oc1ccc2c(C)c(Cl)c(=O)oc2c1 = active

Please look at the following compound next.
stdin: I would be grateful if you could indicate the recorded call for C[Si](Cn1cncn1)(c1ccc(F)cc1)c1ccc(F)cc1 .
stdout: inactive

###

Target: human Sirtuin 3 (SIRT3), SIRT3 (gene 23410) (UniProt Q9NTG7)
Sequence (Q9NTG7 whole entry, looked up): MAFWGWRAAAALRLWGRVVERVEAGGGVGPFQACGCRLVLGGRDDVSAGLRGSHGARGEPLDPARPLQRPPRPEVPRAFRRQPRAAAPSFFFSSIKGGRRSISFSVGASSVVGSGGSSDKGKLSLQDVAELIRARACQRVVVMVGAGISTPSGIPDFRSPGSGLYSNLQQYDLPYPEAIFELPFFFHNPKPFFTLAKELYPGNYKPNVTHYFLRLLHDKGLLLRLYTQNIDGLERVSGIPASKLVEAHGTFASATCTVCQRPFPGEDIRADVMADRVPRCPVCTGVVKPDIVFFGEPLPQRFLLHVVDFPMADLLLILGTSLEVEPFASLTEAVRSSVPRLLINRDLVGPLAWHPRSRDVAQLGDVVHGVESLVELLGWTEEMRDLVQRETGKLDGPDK
Experiment: NVS_ENZ_hSIRT3: NovaScreen (NVS) Enzymatic Assay for human Sirtuin 3 (SIRT3) (AID 2283222)
Inconclusive results are not listed. Calls of active or inactive are those of the source. How the source made its calls: active means hit-call score of the fitted dose curve at least 0.9, where 1 is the maximum; inconclusive means response in the unintended direction; inactive means score below 0.9.
Allowed answers: active, inactive

Please review the entries below; each comes with its answer.
- COc1ccc(C(=CC(=O)N2CCOCC2)c2ccc(Cl)cc2)cc1OC: inactive
- CC[C@H](C)[C@H]1O[C@]2(C=C[C@@H]1C)C[C@@H]1C[C@@H](C/C=C(\C)[C@@H](O[C@H]3C[C@H](OC)[C@@H](O[C@H]4C[C@H](OC)[C@@H](NC)[C@H](C)O4)[C@H](C)O3)[C@@H](C)/C=C/C=C3\CO[C@@H]4[C@H](O)C(C)=C[C@@H](C(=O)O1)[C@]34O)O2: active
- C[Si](Cn1cncn1)(c1ccc(F)cc1)c1ccc(F)cc1: inactive

Please find the next compound below.
stdin: // return assay outcome for CC(C)[C@H](C(=O)O[C@H](C#N)c1cccc(Oc2ccccc2)c1)c1ccc(Cl)cc1
stdout: inactive
